Origin of measurements: PubChem BioAssay (NCI)

system: HS 578T breast; test: NCI-60 one-dose screen, 48 h (100 = growth as untreated, 0 = no growth, -100 = all killed); settings: 10 µM unless noted
About 83,000 compounds went through this panel and 20% of them were active in at least one assay; those are over-represented in the sample as a whole.
Label 1 (yes) when growth >= 80%; otherwise 0 (no).

Item `COc1ccc(-c2nn3c(-c4ccccc4F)nnc3s2)cc1` with growth of 80% or above?
0 (no)

Item `CS(=O)(=O)c1ccc(-c2nc3ccccn3c2/C=N/Nc2nc(-c3ccc(Cl)cc3)cs2)cc1` with growth of 80% or above?
1 (yes)

Item O=C1NC(=C(Cl)Cl)/C(=N/S(=O)(=O)N2CCCCC2CC2(C(F)(F)F)N=N2)N1 (centres undefined) with growth of 80% or above?
0 (no)

Item `Fc1ccc(-c2cc3nc(C(Cl)Cl)nc(-c4ccccc4)n3n2)cc1` with growth of 80% or above?
0 (no)

Item `O=c1[nH]c2ccccc2cc1CSc1ccccc1Nc1nccc(-c2ccc(C(F)(F)F)cc2)n1` with growth of 80% or above?
0 (no)

Item `CCOc1ccc2nc(NC(=O)c3ccc(C(F)(F)F)cc3)sc2c1` with growth of 80% or above?
1 (yes)

Item `COc1ccc(N/N=C/c2c(-c3ccc(S(C)(=O)=O)cc3)nc3ccccn23)cc1` with growth of 80% or above?
0 (no)

Item `N#Cc1c(-c2ccc(Cl)cc2)nc(SCc2ccc(F)cc2)nc1N1CCNCC1` with growth of 80% or above?
1 (yes)

Item O=C(c1ccc(Cl)cc1)C1[C@H](c2ccc(Cl)cc2)[C@@H](c2ccccc2)NC12C(=O)Nc1ccc(Br)cc12 (some centres undefined) with growth of 80% or above?
0 (no)

Item `Cn1cc(-c2cc(N)n3nc(-c4cn(C)c5ccc(Cl)cc45)cc3n2)c2cc(Cl)ccc21` with growth of 80% or above?
1 (yes)

Item `C#C[C@]1(O)CC[C@H]2[C@@H]3CC=C4c5sc(Nc6ccc(Cl)cn6)nc5CC[C@]4(C)[C@H]3CC[C@@]21C` with growth of 80% or above?
0 (no)
